Here the recorded Kd is given for each entry.
# target_entity: T1, PE9413, C-terminal biotinylated peptide mapping on Exon6 of the SCF molecule (SCF248) (C-terminal biotin)
# T1 construct: also called C-terminal biotinylated PE9413; C-ter PE9413
# T1 peptide: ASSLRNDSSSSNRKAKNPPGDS
# protocol_text: yeast-displayed scFv, flow cytometry titration of biotinylated peptide
# Method: The binding of the selected 48 clones described above to 170 nM of C-terminal biotinylated PE9413 was evaluated. The 24 clones with the highest binding signal were further evaluated for binding affinity. Each clone was incubated with increasing amounts of biotinylated PE9413, and stained with a fluorescently labeled anti-streptavidin antibody. Binding of the clone to PE9413 was analyzed by flow cytometry. […]

{"binder": "A44P scFv displayed on yeast (scFv, V domains shown, Aga2-anchored, VH-VL orientation; not shown: linker; SV5 tag) VH: QVQLVQSGAELKKPGSSVKISCKSSGYAFSSQWMNWVKQRPGQGLEWIGQIYPEDGDTHYNDKFKGKATLTADKSTSTAYMELSSLTSEDSAVYFCSSSNWVGSYWGQGTLVTVSS VL: DVVMTQSPLSLPVTLGQPASISCKSSQSLLESDGNTYLNWLQQRPGQSPRRLIYLVNRLDSGVPDRFSGSGSGTDFTLKISRVEAEDVGVYYCWQGTDLPQTFGGGTKVEIK", "Kd [nM]": 5.32}
{"binder": "F54P scFv displayed on yeast (scFv, V domains shown, Aga2-anchored, VH-VL orientation; not shown: linker; SV5 tag) VH: QVQLVQSGAELKKPGSSVKISCKSSGYAFSSQWMNWVKQRPGQGLEWIGQIYPEDGDTHMNGKFKTKATLTADKSTSTAYMELSSLTSEDSAVYFCSSSNWVGSYWGQGTLVTVSS VL: DVVMTQSPLSLPVTLGQPASISCKSSQSLLEEDGNTYLNWLQQRPGQSPRRLIYLVDRLDSGVPDRFSGSGSGTDFTLKISRVEAEDVGVYYCWQGTDLPQTFGGGTKVEIK", "Kd [nM]": 4.09}
